experiment-description: total protein half-life in vivo (active degradation + dilution); higher = more stable protein
condition: E. coli NCM3722 delta-smpB; growth: N-lim chemostat; doubling time 6 h
Items are presented alongside their recorded total protein half-life in vivo.
Field format: number, assumed h, no unit text.

Solved entries (count: 4):
1. MVKLAFPRELRLLTPSQFTFVFQQPQRAGTPQITILGRLNSLGHPRIGLTVAKKNVRRAHERNRIKRLTRESFRLRQHELPAMDFVVVAKKGVADLDNRALSEALEKLWRRHCRLARGS [P0A7Y8] :: 3.76
2. MKYKHLILSLSLIMLGPLAHAEEIGSVDTVFKMIGPDHKIVVEAFDDPDVKNVTCYVSRAKTGGIKGGLGLAEDTSDAAISCQQVGPIELSDRIKNGKAQGEVVFKKRTSLVFKSLQVVRFYDAKRNALAYLAYSDKVVEGSPKNAISAVPVMPWRQ [P0AE91] :: 6.01
3. MRLLPLVAAATAAFLVVACSSPTPPRGVTVVNNFDAKRYLGTWYEIARFDHRFERGLEKVTATYSLRDDGGLNVINKGYNPDRGMWQQSEGKAYFTGAPTRAALKVSFFGPFYGGYNVIALDREYRHALVCGPDRDYLWILSRTPTISDEVKQEMLAVATREGFDVSKFIWVQQPGS [P0A901] :: 5.8
4. MKKKILAFGLISALFCSTPAMADMNRTTKGALLGAGVGLLTGNGVNGVLKGAAVGAGVGAVTEKGRDGKNARKGAKVGAAVGAVTGVLTGNGLEGAIKGAVIGGTGGAILGKMK [Q7DFV3] :: 1.39

What value of total protein half-life in vivo has been recorded for this entry: `MLCVKNVSLRLPESRLLTNVNFTVDKGDIVTLMGPSGCGKSTLFSWMIGALAEQFSCTGELWLNEQRIDILPTAQRQIGILFQDALLFDQFSVGQNLLLALPATLKGNARRNAVNDALERSGLEGAFHQDPATLSGGQRARVALLRALLAQPKALLLDEPFSRLDVALRDNFRQWVFSEVRALAIPVVQVTHDLQDVPADSSVLDMAQWSENYNKLR`
5.27

Now consider `MRMNVFEMEGFLRGKCVPRDLKVNETNAEYLVRKFDALEAKCAALENKIIPVSAELPPANESVLLFDANGEGWLIGWRSLWYTWGQKETGEWQWTFQVGDLENVNITHWAVMPKAPEAGA` and answer again.
2.28

Now consider `MSNLTYLQGYPEQLLSQVRTLINEQRLGDVLAKRYPGTHDYATDKALWQYTQDLKNQFLRNAPPINKVMYDNKIHVLKNALGLHTAVSRVQGGKLKAKVEIRVATVFRNAPEPFLRMIVVHELAHLKEKEHNKAFYQLCCHMEPQYHQLEFDTRLWLTQLSLGQNKI` and answer again.
1.71

Now consider MAIDENKQKALAAALGQIEKQFGKGSIMRLGEDRSMDVETISTGSLSLDIALGAGGLPMGRIVEIYGPESSGKTTLTLQVIAAAQREGKTCAFIDAEHALDPIYARKLGVDIDNLLCSQPDTGEQALEICDALARSGAVDVIVVDSVAALTPKAEIEGEIGDSHMGLAARMMSQAMRKLAGNLKQSNTLLIFINQIRMKIGVMFGNPETTTGGNALKFYASVRLDIRRIGAVKEGENVVGSETRVKVVKNKIAAPFKQAEFQILYGEGINFYGELVDLGVKEKLIEKAGAWYSYKGEKIGQGKANATAWLKDNPETAKEIEKKVRELLLSNPNSTPDFSVDDSEGVAETNEDF [P0A7G6] and answer again.
3.32

Now consider MSVIKMTDLDLAGKRVFIRADLNVPVKDGKVTSDARIRASLPTIELALKQGAKVMVTSHLGRPTEGEYNEEFSLLPVVNYLKDKLSNPVRLVKDYLDGVDVAEGELVVLENVRFNKGEKKDDETLSKKYAALCDVFVMDAFGTAHRAQASTHGIGKFADVACAGPLLAAELDALGKALKEPARPMVAIVGGSKVSTKLTVLDSLSKIADQLIVGGGIANTFIAAQGHDVGKSLYEADLVDEAKRLLTTCNIPVPSDVRVATEFSETAPATLKSVNDVKADEQILDIGDASAQELAEILKNAKTILWNGPVGVFEFPNFRKGTEIVANAIADSEAFSIAGGGDTLAAIDLFGIADKISYISTGGGAFLEFVEGKVLPAVAMLEERAKK [P0A799] and answer again.
4.66

Now consider `MKAFDLHRMAFDKVPFDFLGEVALRSLYTFVLVFLFLKMTGRRGVRQMSLFEVLIILTLGSAAGDVAFYDDVPMVPVLIVFITLALLYRLVMWLMAHSEKLEDLLEGKPVVIIEDGELAWSKLNNSNMTEFEFFMELRLRGVEQLGQVRLAILETNGQISVYFFEDDKVKPGLLILPSDCTQRYKVVPESADYACIRCSEIIHMKAGEKQLCPRCANPEWTKASRAKRVT` and answer again.
5.8

Now consider `MSLPMLQVALDNQTMDSAYETTRLIAEEVDIIEVGTILCVGEGVRAVRDLKALYPHKIVLADAKIADAGKILSRMCFEANADWVTVICCADINTAKGALDVAKEFNGDVQIELTGYWTWEQAQQWRDAGIGQVVYHRSRDAQAAGVAWGEADITAIKRLSDMGFKVTVTGGLALEDLPLFKGIPIHVFIAGRSIRDAASPVEAARQFKRSIAELWG` and answer again.
4.15

Now consider `MRWQGRRESDNVEDRRNSSGGPSMGGPGFRLPSGKGGLILLIVVLVAGYYGVDLTGLMTGQPVSQQQSTRSISPNEDEAAKFTSVILATTEDTWGQQFEKMGKTYQQPKLVMYRGMTRTGCGAGQSIMGPFYCPADGTVYIDLSFYDDMKDKLGADGDFAQGYVIAHEVGHHVQKLLGIEPKVRQLQQNATQAEVNRLSVRMELQADCFAGVWGHSMQQQGVLETGDLEEALNAAQAIGDDRLQQQSQGRVVPDSFTHGTSQQRYSWFKRGFDSGDPAQCNTFGKSI` and answer again.
4.87

Now consider MLELLFLLLPVAAAYGWYMGRRSAQQNKQDEANRLSRDYVAGVNFLLSNQQDKAVDLFLDMLKEDTGTVEAHLTLGNLFRSRGEVDRAIRIHQTLMESASLTYEQRLLAIQQLGRDYMAAGLYDRAEDMFNQLTDETDFRIGALQQLLQIYQATSEWQKAIDVAERLVKLGKDKQRVEIAHFYCELALQHMASDDLDRAMTLLKKGAAADKNSARVSIMMGRVFMAKGEYAKAVESLQRVISQDRELVSETLEMLQTCYQQLGKTAEWAEFLQRAVEENTGADAELMLADIIEARDGSEAAQVYITRQLQRHPTMRVFHKLMDYHLNEAEEGRAKESLMVLRDMVGEKVRSKPRYRCQKCGFTAYTLYWHCPSCRAWSTIKPIRGLDGL [P0AB58] and answer again.
6.04
